B1: LINE1-full (parent)
chain: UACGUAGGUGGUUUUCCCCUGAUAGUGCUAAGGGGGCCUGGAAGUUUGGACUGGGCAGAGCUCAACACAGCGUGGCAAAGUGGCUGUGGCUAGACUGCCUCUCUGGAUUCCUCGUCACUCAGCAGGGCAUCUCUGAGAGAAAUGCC

Variants of: B1
assay details: self-cleavage, relative activity (ratio to wild type); higher = more cleavage; in vitro, sequencing; the parent is a self-cleaving ribozyme
Entries and their self-cleavage

{"columns": ["mutation label", "self-cleavage"],
 "data": [
  ["G32A C71U", 0.91],
  ["G88A C110U", 0.04],
  ["A78G U132A", 1.62],
  ["U102C U119A", 1.45],
  ["U109C U134C", 1.21],
  ["U96C U112A", 0.12],
  ["G4A U62G", 0],
  ["U9C G11A", 1.07],
  ["C17A A22G", 2.19],
  ["A124U A142G", 1.51],
  ["A2G U81A", 0.74],
  ["C103U A117G", 1.41],
  ["G70U G97A", 0.01],
  ["U13A C28U", 0.76],
  ["U47G A138G", 0.98],
  ["A79G G126A", 1.51],
  ["G35C U85C", 0.22],
  ["U5C A107G", 1.13],
  ["U46G A67G", 0.32],
  ["U87C A117G", 0.41],
  ["U29C A77G", 1.92],
  ["G60U A121G", 0]
]}

These entries and their values trace back to the RNAGym collection of RNA variant scans (doi:10.7554/elife.90254).
